Could you please report measured herbicidal effect rating ORYSAT for the items listed next?
System: Oryza sativa, (L.) Tebonnet
Assay Overview: Rice tolerance to post-transplant applications under flooded paddy conditions (Example 187), ORYSAT (Rice, Tebonnet); on herbicidal effect rating ORYSAT: meaning of each grade not given here
Details: Rate 0.0320 kg/ha, rated 3-4 weeks after treatment
Field format: numeric only.

# lookup: herbicidal effect rating ORYSAT of Cc1ccc(OCC(=O)OCC2(c3ccccc3)CC2)c(-c2nsc3ccc(-n4c(=O)cc(C(F)(F)F)n(C)c4=O)cc23)c1 [Example 517]
0.0

Proceed to Cc1ccc(OC(C)C(=O)c2ccc(C)c(C)c2)c(-c2nsc3ccc(-n4c(=O)cc(C(F)(F)F)n(C)c4=O)cc23)c1 (centres unmarked) [Example 542]
0.0

Proceed to Cc1ccc(OCC(=O)c2ccc(OC(F)F)cc2)c(-c2nsc3ccc(-n4c(=O)cc(C(F)(F)F)n(C)c4=O)cc23)c1 [Example 543]
0.0

Proceed to Cn1c(C(F)(F)F)cc(=O)n(-c2ccc3snc(-c4ccccc4OCC(N)=O)c3c2)c1=O [Example 563]
4.0

Proceed to Cc1ccc(OCC(=O)OCCC2OCC(C)(C)CO2)c(-c2nsc3ccc(-n4c(=O)cc(C(F)(F)F)n(C)c4=O)cc23)c1 [Example 533]
3.0

Proceed to C=CC(CCCC)OC(=O)COc1ccc(C)cc1-c1nsc2ccc(-n3c(=O)cc(C(F)(F)F)n(C)c3=O)cc12 (centres unmarked) [Example 520]
2.0

Proceed to Cc1ccc(OC(C)(C)C(=O)OCCCl)c(-c2nsc3ccc(-n4c(=O)cc(C(F)(F)F)n(C)c4=O)cc23)c1 [Example 544]
4.0

Proceed to CSCCCCOC(=O)COc1ccc(C)cc1-c1nsc2ccc(-n3c(=O)cc(C(F)(F)F)n(C)c3=O)cc12 [Example 518]
1.0

Proceed to COCCCOCCCOC(=O)COc1ccc(C)cc1-c1nsc2ccc(-n3c(=O)cc(C(F)(F)F)n(C)c3=O)cc12 [Example 536]
0.0

Proceed to Cc1ccc(OCC(=O)C(C)(C)C)c(-c2nsc3ccc(-n4c(=O)cc(C(F)(F)F)n(C)c4=O)cc23)c1 [Example 540]
0.0

Proceed to C=CCOC(=O)C(C)(C)Oc1ccc(C)cc1-c1nsc2ccc(-n3c(=O)cc(C(F)(F)F)n(C)c3=O)cc12 [Example 530]
0.0

Proceed to Cn1c(C(F)(F)F)cc(=O)n(-c2ccc3snc(-c4ccccc4OCC(N)=O)c3c2)c1=O [Example 548]
3.0

Proceed to Cc1nsc2ccc(-n3c(=O)cc(C(F)(F)F)n(CCF)c3=O)cc12 [Example 516]
0.0

Proceed to C#CCOC(=O)C(C)(C)Oc1ccc(C)cc1-c1nsc2ccc(-n3c(=O)cc(C(F)(F)F)n(C)c3=O)cc12 [Example 528]
1.5

Proceed to Cn1c(C(F)(F)F)cc(=O)n(-c2ccc3snc(-c4ccccc4OCC(=O)C(C)(C)C)c3c2)c1=O [Example 549]
4.0

Proceed to Cc1ccc(OCC(=O)c2ccc(Cl)cc2)c(-c2nsc3ccc(-n4c(=O)cc(C(F)(F)F)n(C)c4=O)cc23)c1 [Example 538]
0.0

Proceed to CCCS(=O)(=O)NC(=O)COc1ccccc1-c1nsc2ccc(-n3c(=O)cc(C(F)(F)F)n(C)c3=O)cc12 [Example 556]
4.0

Proceed to CCS(=O)(=O)NC(=O)COc1ccccc1-c1nsc2ccc(-n3c(=O)cc(C(F)(F)F)n(C)c3=O)cc12 [Example 558]
4.0

Proceed to C=CCOCC(CC)(COCC=C)COC(=O)COc1ccc(C)cc1-c1nsc2ccc(-n3c(=O)cc(C(F)(F)F)n(C)c3=O)cc12 [Example 521]
0.0

Proceed to COCCOC(=O)C(C)(C)Oc1ccc(C)cc1-c1nsc2ccc(-n3c(=O)cc(C(F)(F)F)n(C)c3=O)cc12 [Example 546]
2.0

* * *

Could you please report measured herbicidal effect rating, ECHORC for the items listed next?
System: Echinochloa oryzoides (Ard.) Fritsch.
Assay Overview: Postemergence weed control under flooded paddy conditions, ECHORC (Watergrass (Calif.))
Format: in vivo
Details: Rate 0.0320 kg/ha, rated three to four weeks after treatment
Field format: numeric only.

# lookup: herbicidal effect rating, ECHORC of `CCCCC(=O)c1nsc2ccc(-n3c(=O)cc(C(F)(F)F)n(C)c3=O)cc12`
7.0

Proceed to `COC(=O)COc1ccc(C)cc1-c1noc2ccc(-n3c(=O)cc(C(F)(F)F)n(C)c3=O)c(Cl)c12`
0.0

Proceed to `CC(C)S(=O)(=O)NC(=O)c1nsc2ccc(-n3c(=O)cc(C(F)(F)F)n(C)c3=O)cc12`
0.0

Proceed to `COCc1nsc2cc(F)c(-n3c(=O)cc(C(F)(F)F)n(C)c3=O)cc12`
9.0

* * *

Could you please report measured ORYSAT herbicidal effect rating for the items listed next?
Tested on: Oryza sativa, (L.) Tebonnet
Assay Overview: Rice tolerance to post-transplant applications under flooded paddy conditions (Example 187), ORYSAT (Rice, Tebonnet)
Details: Rate 0.2500 kg/ha, rated three to four weeks after treatment

# lookup: ORYSAT herbicidal effect rating of `CC(C)OP(=O)(Cc1nsc2ccc(-n3c(=O)cc(C(F)(F)F)n(C)c3=O)cc12)OC(C)C`
4.0

Proceed to `C#CCOC(=O)COc1ccc(-c2nsc3ccc(-n4c(=O)cc(C(F)(F)F)n(C)c4=O)cc23)cc1`
3.0

Proceed to `Cn1c(C(F)(F)F)cc(=O)n(-c2ccc3snc(C(C)(C)C#N)c3c2)c1=O`
9.0

Proceed to `Cc1ccc(OCC(=O)NS(=O)(=O)c2c(C)noc2C)c(-c2nsc3ccc(-n4c(=O)cc(C(F)(F)F)n(C)c4=O)cc23)c1`
8.0

Proceed to `C=CCOc1nc(C(F)(F)F)cc(=O)n1-c1ccc2snc(-c3cc(C)ccc3OC)c2c1`
0.0

Proceed to `COP(=O)(Cc1nsc2ccc(-n3c(=O)cc(C(F)(F)F)n(C)c3=O)cc12)OC`
3.0

Proceed to `Cn1c(C(F)(F)F)cc(=O)n(-c2ccc3snc(-c4ccccc4OCC(=O)NS(C)(=O)=O)c3c2)c1=O`
7.5

Proceed to `COC(=O)/C=C/c1nsc2ccc(-n3c(=O)cc(C(F)(F)F)n(C)c3=O)cc12`
4.0

Proceed to C=C(C)C1CC=C(COCc2nsc3ccc(-n4c(=O)ccn(C)c4=O)cc23)CC1 (stereo not drawn)
3.0

Proceed to `COC(=O)COc1ccc(C)cc1-c1noc2ccc(-n3c(=O)cc(C(F)(F)F)n(C)c3=O)c(Cl)c12`
0.0

Proceed to `CC(=O)Nc1nnc(S(=O)(=O)NC(=O)COc2ccc(C)cc2-c2nsc3ccc(-n4c(=O)cc(C(F)(F)F)n(C)c4=O)cc23)s1`
0.0

Proceed to COC(=O)C(C)Oc1ccc(-c2nsc3ccc(-n4c(=O)cc(C(F)(F)F)n(C)c4=O)cc23)cc1 (stereo not drawn)
4.0

Proceed to `Cn1c(C(F)(F)F)cc(=O)n(-c2ccc3snc(CO)c3c2)c1=O`
7.0

Proceed to `Cn1c(C(F)(F)F)cc(=O)n(-c2ccc3snc(CCBr)c3c2)c1=O`
0.0

Proceed to `CO/N=C/c1nsc2ccc(-n3c(=O)cc(C(F)(F)F)n(C)c3=O)cc12`
8.0

* * *

System: Cyperus iria
Assay Overview: Preemergence weed control under flooded paddy conditions, CYPIR (Rice Flatsedge); further: meaning of each grade not given here
Format: in vivo
Details: Rate 0.2500 kg/ha; preemergence, flooded paddy; rated three to four weeks after treatment
Could you please report measured herbicidal effect rating, CYPIR for the items listed next?
Field format: numeric only.

# lookup: herbicidal effect rating, CYPIR of `CN(O)C(=O)c1nsc2ccc(-n3c(=O)cc(C(F)(F)F)n(C)c3=O)cc12`
8.0

Proceed to `CON(C)C(=O)COc1ccccc1-c1nsc2ccc(-n3c(=O)cc(C(F)(F)F)n(C)c3=O)cc12`
9.0

Proceed to CCS(=O)(=O)NC(=O)C(C)Oc1ccc(C)cc1-c1nsc2ccc(-n3c(=O)cc(C(F)(F)F)n(C)c3=O)cc12 (stereo not drawn)
9.0

Proceed to `Cn1c(C(F)(F)F)cc(=O)n(-c2ccc3snc(C(=O)NS(=O)(=O)c4cccs4)c3c2)c1=O`
6.0

Proceed to `CC(=O)NCCOC(=O)c1nsc2ccc(-n3c(=O)cc(C(F)(F)F)n(C)c3=O)cc12`
7.0

Proceed to `Cn1c(C(F)(F)F)cc(=O)n(-c2ccc3snc(C(C#N)=Cc4cnc[nH]4)c3c2)c1=O`
4.0

Proceed to `Cn1c(C(F)(F)F)cc(=O)n(-c2ccc3snc(COC(=O)Cc4ccccc4)c3c2)c1=O`
9.0

Proceed to `Cn1c(C(F)(F)F)cc(=O)n(-c2cc3c(CC#N)nsc3cc2F)c1=O`
9.0

Proceed to Cn1c(C(F)(F)F)cc(=O)n(-c2ccc3snc(C[S+]([O-])c4ccccc4)c3c2)c1=O (stereo not drawn)
7.0

Proceed to COC(C)c1nsc2ccc(-n3c(=O)cc(C(F)(F)F)n(C)c3=O)cc12 (stereo not drawn)
9.0

Proceed to `Cn1c(C(F)(F)F)cc(=O)n(-c2ccc3snc(C(C#N)=Cc4ccncc4)c3c2)c1=O`
0.0

Proceed to `COc1cc2c(cc1-c1nsc3ccc(-n4c(=O)cc(C(F)(F)F)n(C)c4=O)cc13)CCC2`
9.0

Proceed to `Cn1c(C(F)(F)F)cc(=O)n(-c2ccc3snc(CSc4ccccc4)c3c2)c1=O`
7.0

Proceed to `Cn1c(C(F)(F)F)cc(=O)n(-c2ccc3snc(COCc4ccc(Cl)cc4Cl)c3c2)c1=O`
9.0

Proceed to `CCCCCCCOC(=O)c1nsc2ccc(-n3c(=O)cc(C(F)(F)F)n(C)c3=O)cc12`
9.0

Proceed to `Cn1c(C(F)(F)F)cc(=O)n(-c2ccc3snc(C(C#N)=Cc4ccoc4)c3c2)c1=O`
5.0

Proceed to CCC(C)S(=O)(=O)NC(=O)c1nsc2ccc(-n3c(=O)cc(C(F)(F)F)n(C)c3=O)cc12 (stereo not drawn)
3.0

Proceed to Cc1ccc(OC(C)C(=O)NS(C)(=O)=O)c(-c2nsc3ccc(-n4c(=O)cc(C(F)(F)F)n(C)c4=O)cc23)c1 (stereo not drawn)
5.0

Every entry's value here was drawn from patent EP0908457B1.
